Molecular target: human FSH receptor (Homo sapiens, UniProt P23945)
Construct: expressed in transfected cells; host or cells: CHO cells (hFSHR clone 16)
Sequence (P23945 18-695): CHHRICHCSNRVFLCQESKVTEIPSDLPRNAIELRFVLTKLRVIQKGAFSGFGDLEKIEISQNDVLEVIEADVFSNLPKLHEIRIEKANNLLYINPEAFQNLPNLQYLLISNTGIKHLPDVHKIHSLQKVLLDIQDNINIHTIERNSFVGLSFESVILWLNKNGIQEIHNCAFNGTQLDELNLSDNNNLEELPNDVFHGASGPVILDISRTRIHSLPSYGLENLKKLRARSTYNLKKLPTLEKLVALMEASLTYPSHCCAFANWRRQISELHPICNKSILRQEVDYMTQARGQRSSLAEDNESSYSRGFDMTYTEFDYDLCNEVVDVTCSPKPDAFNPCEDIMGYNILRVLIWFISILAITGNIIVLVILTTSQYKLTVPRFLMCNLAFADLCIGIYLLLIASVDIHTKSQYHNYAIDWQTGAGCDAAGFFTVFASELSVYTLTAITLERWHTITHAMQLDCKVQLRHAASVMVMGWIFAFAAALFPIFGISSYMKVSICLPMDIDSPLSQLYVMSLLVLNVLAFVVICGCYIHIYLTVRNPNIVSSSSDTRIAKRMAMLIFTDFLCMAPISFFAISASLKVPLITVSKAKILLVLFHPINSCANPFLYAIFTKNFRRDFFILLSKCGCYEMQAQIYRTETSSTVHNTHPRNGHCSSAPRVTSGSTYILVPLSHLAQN
Assay: HTRF assay for measuring cAMP in cells (FSH antagonism)
Type: cell-based
Settings: Table 2; hFSHR clone 16 cells (CHO cells stably transfected with the human FSH receptor), in the presence of 1e-9 mol/l hFSH, 37° C. for 2 h; read-out: IC50 (FSH-antagonistic effect in the HTRF assay)
experimental-readout: IC50 (nM)

Would you please look over these solved cases?
INSERT INTO measurements (compound, test_target, experimental_readout, reported_measurement) VALUES
  ('CS(=O)(=O)c1cccc(-c2cc3c(c(C(=O)N[C@@H](CO)Cc4c[nH]c5ccccc45)c2)OCCO3)c1', 'human FSH receptor (Homo sapiens, UniProt P23945)', 'IC50', 2000),
  ('CNC(=O)c1cccc(C#Cc2cc3c(c(C(=O)NC(CO)Cc4c[nH]c5cc(F)ccc45)c2)OCCCC3)c1 (stereo not shown)', 'human FSH receptor (Homo sapiens, UniProt P23945)', 'IC50', 60);

I: CSc1cccc(-c2cc3c(c(C(=O)N[C@@H](CO)Cc4c[nH]c5ccccc45)c2)OCCO3)c1
II: CN(C)S(=O)(=O)c1ccc(-c2cc3c(c(C(=O)N[C@@H](CO)Cc4c[nH]c5ccccc45)c2)OCCO3)cc1
III: O=C(N[C@@H](CO)Cc1c[nH]c2ccccc12)c1cc(-c2cccc(Cl)c2)cc2c1OCCO2
Please put the entries in order of rising IC50. Give your ranking as a list of the labels in the requested order.
I, II, III

A: O=C(N[C@@H](CO)Cc1c[nH]c2ccccc12)c1cc(-c2ccc(CO)cc2)cc2c1OCCO2
B: Cc1ccccc1-c1cc2c(c(C(=O)N[C@@H](CO)Cc3c[nH]c4ccccc34)c1)OCCO2
Compare A and B and name the one whose reported IC50 is smaller. Record your answer as the label of the chosen record.
A
(A: 1000 nM, B: 9000 nM)

All values here come from patent US20080207728A1.
